Provide the reported %Inh of each item.
# Test system: PCTK2
# Construct: gene CDK17
# EXPERIMENTAL PARAMETERS: concentration: 1 μM, replicates: in singlicate; n = 1;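 also: KINOMEscan kinase panel screen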
The figure you give is taken to be in %; do not add the unit.

# input compound: "COc1cc2ncnc(Nc3cccc(Br)c3)c2cc1OC.Cl" ; wanted: its %Inh 0

What about this compound? "O=C1NC(=O)C(c2ccc(Cl)cc2)=C1Nc1ccc(O)cc1" 4

What about this compound? "CC(C)c1cc(-c2ccc3c(N)n[nH]c3c2)nc(N)n1" 9

What about this compound? "Cc1ccccc1Cn1ccn2c(=O)cc(N3CCOCC3)nc12" 0

What about this compound? "Cc1ccc(NC(=O)Nc2ccccc2F)cc1-c1ccc(C(=O)Nc2ccncc2)cc1" 12

What about this compound? COc1ccc(Nc2nccc(N3CCC(NC(=O)c4cc5ccccc5s4)C3)n2)cc1 (stereo not drawn) 0

What about this compound? "CC(=O)c1c(C)c2cnc(Nc3ccc(N4CCNCC4)cn3)nc2n(C2CCCC2)c1=O" 10

What about this compound? "CCn1c(-c2c(N)noc2C)nc2cnccc21" 0

What about this compound? "COc1ccc(CSc2nnc(-c3ccc4ncsc4c3)o2)cc1C(F)(F)F" 0

====

Provide the reported %Inh of each item.
# Test system: TSSK1B
# EXPERIMENTAL PARAMETERS: concentration: 1 μM, replicates: in singlicate; n = 1
Respond with a number, then the unit of measure.

# input compound: "CS(=O)(=O)CCNCc1nc(-c2ccc3ncnc(Nc4ccc5c(cnn5Cc5ccccc5)c4)c3c2)cs1.Cl.Cl" ; wanted: its %Inh 0%

What about this compound? "FC(F)(F)c1ccccc1-c1cc(-c2c[nH]nc2-c2ccccn2)ccn1" 1%

What about this compound? "Cn1cncc1-c1cc2c(Nc3ccc(OCc4ccccc4)cc3)ncnc2cn1" 18%

What about this compound? "CCn1c(-c2ccccc2)nc2cnccc21" 32%

What about this compound? COC(=O)c1cccc(NC(=O)NC2CCN(c3ccnc(Nc4ccc(OC)cc4)n3)C2)c1 (centres unmarked) 13%

What about this compound? "Cc1c(Cn2c(C)c(C)n3c(=O)cc(N4CCOCC4)nc23)cccc1C(F)(F)F" 11%

What about this compound? "COc1ccc(Nc2nccc(-c3ccc(NC(=O)c4cc5cc(F)ccc5[nH]4)cc3)n2)cc1" 0%

What about this compound? "Cc1c(Cn2c3ccccc3n3c(=O)cc(N4CCOCC4)nc23)cccc1C(F)(F)F" 3%

What about this compound? "Fc1ccc(-c2nc[nH]c2-c2ccncc2)cc1" 0%

What about this compound? "CNc1cc(-c2ccc3c(N)n[nH]c3c2)nc(N)n1" 0%

What about this compound? "CNC(=O)c1ccc(C)c(-n2c(C)cc(OCc3ccc(F)cc3F)c(Br)c2=O)c1" 0%

What about this compound? "COc1cc2ncnc(Nc3cccc(Br)c3)c2cc1OC.Cl" 0%

What about this compound? COC(=O)c1cccc(NC(=O)NC2CCN(c3ccnc(Nc4ccc(F)cc4)n3)C2)c1 (centres unmarked) 0%

What about this compound? "Cc1cnc(N)c(/C=C/c2cncc(C(=O)NCCc3ccc(Cl)cc3Cl)c2)c1.Cl" 6%

What about this compound? "COc1ccc(CSc2nnc(-c3ccc4ncsc4c3)o2)cc1C(F)(F)F" 0%

What about this compound? "CC(C)c1ccc(O)cc1Nc1ccnc2ccc(C(F)(F)F)cc12" 0%

What about this compound? "O=C(Nc1n[nH]c2cc(-c3ccsc3)ccc12)C1CC1" 13%

What about this compound? "Nc1ncnc2occ(-c3ccc4c(c3)CCN4C(=O)Cc3cc(F)ccc3F)c12" 0%

What about this compound? COC(=O)C(NC(=O)NC1CCN(c2ccnc(Nc3ccc(F)cc3)n2)C1)c1ccccc1 (centres unmarked) 14%

What about this compound? "CC[C@@H]1CO[C@H](C(=O)Nc2ccccc2)CN1c1cc(-c2ccc3c(N)n[nH]c3c2)nc(NC)n1" 0%

What about this compound? "c1ccc(-c2ccnc3[nH]ccc23)cc1" 28%

What about this compound? COc1ccc(Nc2nccc(N3CCC(NC(=O)c4cc5ccccc5s4)C3)n2)cc1 (centres unmarked) 0%

What about this compound? "CS(=O)(=O)Cc1ccc(Nc2nccc(-c3c(-c4cccc(NC(=O)C5CCCCC5)c4)nn4ncccc34)n2)cc1" 14%

What about this compound? "O=c1cc(N2CCOCC2)nc2n(Cc3cccc(Cl)c3Cl)c3ccccc3n12" 10%

What about this compound? "COc1cccc(NC(=O)Nc2ccc(C)c(-c3ccc(C(=O)Nc4ccncc4)cc3)c2)c1" 0%

What about this compound? "COc1ccc2cc(-c3nc(-c4ccccc4C(C)C)[nH]c3-c3ccncc3)ccc2c1" 54%

What about this compound? "COc1ccc(CSc2nnc(-c3ccc4c(c3)CCO4)o2)cc1" 0%

What about this compound? "CCCCc1nn2ncccc2c1-c1ccnc(NC2CC2)n1" 0%

What about this compound? "Cc1ccc(NC(=O)Nc2ccccc2F)cc1-c1ccc(C(=O)Nc2ccncc2)cc1" 3%

What about this compound? O=C(Nc1n[nH]c2nc(-c3ccco3)c(Br)cc12)C1CCN(Cc2ccccc2)C1.O=C(O)[C@H](O)[C@@H](O)C(=O)O (centres unmarked) 0%

What about this compound? "Cc1ccc(NC(=O)Nc2ccccc2)cc1-c1ccc(C(=O)Nc2ccncc2)cc1" 0%

What about this compound? "Cc1ccc(NC(=O)c2ccc(Cl)cc2)cc1-c1ccc(C(=O)Nc2ccncc2)cc1" 18%

What about this compound? "CC(=O)c1c(C)c2cnc(Nc3ccn(C)n3)nc2n(C2CCCC2)c1=O" 16%

What about this compound? "Cc1ccccc1-c1cc(-c2c[nH]nc2-c2ccccn2)ccn1" 1%

What about this compound? "CCc1ccc(-c2ccc3c(c2)-c2n[nH]cc2S(=O)(=O)N3C)cc1" 0%

====

# System: CDK4-cyclinD3
# EXPERIMENTAL PARAMETERS: concentration: 1 μM, replicates: in singlicate; n = 1
Provide the reported %Inh of each item.
The figure you give is taken to be in %; do not add the unit.

# input compound: "COc1ccc(Nc2nccc(-c3ccc(NC(=O)c4cc5cc(F)ccc5[nH]4)cc3)n2)cc1" ; wanted: its %Inh 0

What about this compound? "CN1c2ccc(-c3ccc(C(N)=O)cc3)cc2-c2[nH]ncc2S1(=O)=O" 0

What about this compound? "Cl.Cl.Cl.N#Cc1ccc(CCNc2nccc(-c3cccc(CN4CCNCC4)c3)n2)cc1" 24

What about this compound? "Nc1cccc(-c2ccc3c(N)n[nH]c3c2)n1" 0

What about this compound? "CNc1nc(-c2ccc3c(N)n[nH]c3c2)cc(N2C[C@@H](C(=O)NC3CCCCC3)OC[C@H]2C)n1" 7

What about this compound? "Cc1nccc(-c2c(-c3ccc(F)cc3)ncn2CCCN2CCOCC2)n1.Cl" 33

What about this compound? Cn1cncc1C(=O)NC1CCN(c2ccnc(Nc3ccc(F)cc3)n2)C1 (stereo not shown) 14

What about this compound? "COc1cc2ncnc(Nc3cccc(Br)c3)c2cc1OC.Cl" 0

What about this compound? "CC(C)c1ccc(O)cc1Nc1ccnc2ccc(C(F)(F)F)cc12" 0

What about this compound? "Cc1cccc2c(-c3ccncn3)c(-c3ccc(F)cc3)nn12" 0

====

# System: PRKCE
# EXPERIMENTAL PARAMETERS: concentration: 1 μM, replicates: in singlicate; n = 1
Classification field: enter met for %Inh values not below 10%, not met for values below it.

Decide: is the reported value of %Inh for FC(F)(F)c1ccccc1-c1cc(-c2c[nH]nc2-c2ccccn2)ccn1 [GW679396] equal to or greater than 10%? met

What about this compound? Cc1c(Cn2c(C)c(C)n3c(=O)cc(N4CCOCC4)nc23)cccc1C(F)(F)F [GSK2328680] not met

What about this compound? CS(=O)(=O)CCNCc1nc(-c2ccc3ncnc(Nc4ccc5c(cnn5Cc5ccccc5)c4)c3c2)cs1.Cl.Cl [GW569716] met

What about this compound? O=C1NC(=O)C(c2ccc(Cl)cc2)=C1Nc1cccc(Cl)c1 [SB-317651] not met

What about this compound? CC[C@@H]1CO[C@H](C(=O)Nc2ccccc2)CN1c1cc(-c2ccc3c(N)n[nH]c3c2)nc(NC)n1 [GSK2376236] not met

What about this compound? COc1nccc(-c2c(-c3ccc(F)cc3)ncn2CCCN2CCOCC2)n1 [SB-282852] not met

What about this compound? Cc1ccccc1Cn1ccn2c(=O)cc(N3CCOCC3)nc12 [GSK2269905] not met

What about this compound? NS(=O)(=O)c1cccc(N/C=C2\C(=O)Nc3ccc(S(=O)(=O)Cc4c(Cl)cccc4Cl)cc32)c1 [GSK398099] met

What about this compound? COc1ccc(Nc2nccc(N3CCC(NC(=O)c4cc5ccccc5s4)C3)n2)cc1 (centres unmarked) [GSK1379738] met

What about this compound? Fc1ccc(-c2nc[nH]c2-c2ccncc2)cc1 [SB-217360] not met

What about this compound? Cc1ccc(-c2nc(Nc3ccncc3)c3ccccc3n2)s1 [GSK189015] not met

What about this compound? "CC(=O)c1c(C)c2cnc(Nc3ccc(N4CCNCC4)cn3)nc2n(C2CCCC2)c1=O" met

What about this compound? CS(=O)(=O)Cc1ccc(Nc2nccc(-c3c(-c4cccc(NC(=O)C5CCCCC5)c4)nn4ncccc34)n2)cc1 [GSK350559] not met

What about this compound? O=C(Nc1n[nH]c2nc(-c3ccco3)c(Br)cc12)C1CCN(Cc2ccccc2)C1.O=C(O)[C@H](O)[C@@H](O)C(=O)O (centres unmarked) [SB-742034] not met

What about this compound? "COc1ccc(CSc2nnc(-c3ccc4nccn4c3)o2)cc1C(F)(F)F" met

What about this compound? CNc1cc(-c2ccc3c(N)n[nH]c3c2)nc(N)n1 [GSK2224810] met
